Target: MAO-A
Assay: Kinetic mechanism of MAO-A inhibition in vitro (substrate serotonin or tyramine varied)
Format: biochemical, rat or human
Details: vs. substrate tyramine; extract pretreated with deprenyl (1 μM)
Experimental endpoint: pKi
A value of pKi is the negative decimal logarithm of a concentration given in moles per litre.

Exercise: Specify measured pKi for CCc1cccc2c1S(=O)(=O)c1ccccc1O2 [Compound I, 1-Ethylphenoxathiin 10,10-dioxide] .
Key: 8.00

* * *

Test system: MAO-A
Test: In vitro inhibition of MAO-A in mitochondrial extracts of rat or human brain (double-label assay)
Type: biochemical
Conditions: read-out: I50 (concentration producing 50% inhibition)
Experimental endpoint: IC50 (µM)
Write it as a number; the unit µM goes unstated.

Exercise: Specify measured IC50 for CCc1cccc2c1S(=O)(=O)c1ccccc1O2 [Compound I, 1-Ethylphenoxathiin 10,10-dioxide] .
Key: 0.035

Attribution: patent US5420156A
